test system: human MAL; test: Phage display screening of TIR domain-derived peptide library against immobilized MAL, NGS analysis after four rounds; type: binding; conditions: P8_MAL: library displayed on P8 coat protein, phages remaining after fourth round
endpoint name: NGS count
Give bare numbers.

Sample records with NGS count:
primary_sequence=WFLTAFRMAMDQVADT endpoint_name="NGS count" numeric_result=353
primary_sequence=AWALHQLQQIINWHET endpoint_name="NGS count" numeric_result=232
primary_sequence=FTLAVHVRNWLVGGFI endpoint_name="NGS count" numeric_result=520

Fill in NGS count for each of the 3 sequences listed.
1. WALQELVKILQAKIFL
2. AYANFRQGLLRLLELA
3. KLIQGWFLYRLLKIEQ

Solution:
1. 227
2. 466
3. 2068

Below are some sequences; for each one, tell me its NGS count.
1. DFLNWFIALKSTVIEN
2. AFLYTFLINLTHPTNF
3. RNFVAYLFQALANKGI
4. QLIQQWIELHLHQLHL
5. KFIWDIINAISSQIRV
6. WFMMKFRTVLDHVNDV
7. LFFWESLKQLLRSDGR

Solution:
1: 867; 2: 51063; 3: 27950; 4: 9394; 5: 146; 6: 2269; 7: 22560

Return reported NGS count values for all items listed beneath this line.
1. AFFWEQLRTVLGKPTM
2. DTKLKKGESIAPELLR

Solution:
11826
5617
